Test system: E. faecalis ICB 27159
Type: cell-based, Enterococcus faecalis
Details: Isosensitest medium, 10^5 microbes per ml, 37° C., 18-24 hours
Protocol: Determination of the Minimum Inhibitory Concentration (MIC): The MIC is determined in the liquid dilution test in accordance with the NCCLS guidelines. Overnight cultures of Staphylococcus aureus 133, Enterococcus faecalis 27159, E. faecium 4147 and Streptococcus pneumoniae G9a are incubated with the described test substances in a 1:2 dilution series. […]
Starred links: 1 amine or outer side, 2 acyl side, 3 side chain; linkers in the order of their positions; H or OH if unused. Positions of bridges follow the written chain, without caps; N, C: chain ends. Non-standard residues stand in square brackets, D forms with d. Residues, ends and D or L forms follow the SMILES beside them. Phe(3R-OH) = O=C([C@@H](N[*:1])[C@H](O[*:3])c1ccccc1)[*:2]; Asn(3S-OH) = NC(=O)[C@@H](O)[C@H](N)C(=O)O; Leu(3R-OH) = CC(C)[C@@H](O)[C@H](N)C(=O)O; dAla(TMS) = C[Si](C)(C)C[C@@H](N)C(=O)O; 3Pal = N[C@@H](Cc1cccnc1)C(=O)O; aThr = C[C@H](O)[C@H](N)C(=O)O
Parameter: MIC E. faecalis ICB 27159 (µg/mL)
Numbers only, in µg/mL.

The value of MIC E. faecalis ICB 27159 measured for the molecule CC[C@H](C)[C@@H]1NC(=O)[C@@H](CCCNC(=N)N)NC(=O)[C@H](CC(C)C)NC(=O)[C@H]([C@H](O)C(C)C)NC(=O)[C@@H](NC(=O)[C@H](Cc2cccnc2)NC(=O)[C@H](N)C[Si](C)(C)C)[C@@H](c2ccccc2)OC(=O)[C@H](CO)NC(=O)[C@H]([C@H](O)C(N)=O)NC(=O)CNC(=O)[C@H]([C@H](C)O)NC1=O [Example 8] (H-[dAla(TMS)][3Pal][Phe(3R-OH)][Leu(3R-OH)]L[dR]I[aThr]G[Asn(3S-OH)]S; ester 3-C) turned out to be 2

The origin of these recorded values is patent US7531507B2.
